Can you tell me % inhibition of HGF stimulated phospho-Met (ELISA, HCT116 cells), Ab 0.016 µg/mL for the items I'm about to list?
- Target: human c-Met (human, UniProt P08581 25-1390)
- Sequence (P08581 25-1390): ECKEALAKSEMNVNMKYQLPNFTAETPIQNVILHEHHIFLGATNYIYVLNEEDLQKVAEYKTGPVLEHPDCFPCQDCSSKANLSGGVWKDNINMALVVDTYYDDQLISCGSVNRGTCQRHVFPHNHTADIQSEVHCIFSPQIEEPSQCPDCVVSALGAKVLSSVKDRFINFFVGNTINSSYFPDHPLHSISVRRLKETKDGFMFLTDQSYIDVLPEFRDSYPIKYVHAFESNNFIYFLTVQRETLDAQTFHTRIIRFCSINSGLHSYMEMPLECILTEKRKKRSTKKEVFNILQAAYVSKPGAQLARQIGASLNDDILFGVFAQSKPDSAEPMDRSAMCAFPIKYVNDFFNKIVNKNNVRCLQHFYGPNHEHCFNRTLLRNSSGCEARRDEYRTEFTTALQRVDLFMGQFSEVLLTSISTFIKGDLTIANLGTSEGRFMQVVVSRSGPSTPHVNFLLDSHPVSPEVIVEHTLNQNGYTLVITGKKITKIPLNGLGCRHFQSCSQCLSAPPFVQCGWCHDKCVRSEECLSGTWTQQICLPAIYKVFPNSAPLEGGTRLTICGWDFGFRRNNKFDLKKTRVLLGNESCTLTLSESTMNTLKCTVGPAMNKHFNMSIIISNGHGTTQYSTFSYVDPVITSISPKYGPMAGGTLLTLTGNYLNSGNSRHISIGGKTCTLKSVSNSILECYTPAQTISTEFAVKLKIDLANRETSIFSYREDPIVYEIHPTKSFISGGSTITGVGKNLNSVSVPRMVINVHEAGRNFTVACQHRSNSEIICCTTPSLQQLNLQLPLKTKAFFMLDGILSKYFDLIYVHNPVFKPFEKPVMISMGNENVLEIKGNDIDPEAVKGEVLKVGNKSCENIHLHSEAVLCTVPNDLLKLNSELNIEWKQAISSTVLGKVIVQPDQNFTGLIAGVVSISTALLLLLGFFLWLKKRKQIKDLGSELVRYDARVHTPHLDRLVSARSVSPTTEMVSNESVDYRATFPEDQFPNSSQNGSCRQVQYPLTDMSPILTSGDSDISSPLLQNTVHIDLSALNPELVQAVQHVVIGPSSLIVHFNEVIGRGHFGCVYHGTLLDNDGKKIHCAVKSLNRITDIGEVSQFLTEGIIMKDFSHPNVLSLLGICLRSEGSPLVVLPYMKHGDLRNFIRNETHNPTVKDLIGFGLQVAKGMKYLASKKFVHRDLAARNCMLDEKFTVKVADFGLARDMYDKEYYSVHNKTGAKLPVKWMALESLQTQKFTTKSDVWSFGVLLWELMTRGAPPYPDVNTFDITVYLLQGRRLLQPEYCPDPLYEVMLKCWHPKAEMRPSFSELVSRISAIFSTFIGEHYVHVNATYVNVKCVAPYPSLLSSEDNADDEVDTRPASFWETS
- Method notes: cell-based or functional assay
// units = %; emit number, no label

QUERY: Identify measured % inhibition of HGF stimulated phospho-Met (ELISA, HCT116 cells), Ab 0.016 µg/mL associated with D11-8B8 (antibody, human IgG2, kappa, V domains shown, Human engineered IgG2 kappa c-Met antibody; also called Mab D11-8B8; D11-8B8 IgG2) VH: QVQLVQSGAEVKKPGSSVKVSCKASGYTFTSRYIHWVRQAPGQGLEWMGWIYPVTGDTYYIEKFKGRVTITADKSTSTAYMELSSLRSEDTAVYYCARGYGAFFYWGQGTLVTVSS VL: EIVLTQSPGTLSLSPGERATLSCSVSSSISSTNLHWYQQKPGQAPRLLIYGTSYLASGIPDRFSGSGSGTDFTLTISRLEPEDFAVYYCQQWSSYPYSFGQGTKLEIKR
RESULT: -6.68

QUERY: Identify measured % inhibition of HGF stimulated phospho-Met (ELISA, HCT116 cells), Ab 0.016 µg/mL associated with D11-S17Y (antibody, human IgG2, kappa, V domains shown, Human engineered IgG2 kappa c-Met antibody; also called D11-S17Y IgG2) VH: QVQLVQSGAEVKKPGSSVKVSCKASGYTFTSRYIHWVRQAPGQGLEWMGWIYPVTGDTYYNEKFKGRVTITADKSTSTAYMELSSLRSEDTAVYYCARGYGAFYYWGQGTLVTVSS VL: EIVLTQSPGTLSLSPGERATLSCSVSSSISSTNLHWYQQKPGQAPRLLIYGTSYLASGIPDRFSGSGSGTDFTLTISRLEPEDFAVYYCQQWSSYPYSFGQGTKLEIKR
RESULT: 2.53

QUERY: Identify measured % inhibition of HGF stimulated phospho-Met (ELISA, HCT116 cells), Ab 0.016 µg/mL associated with C8-co-16 (antibody, human IgG2, kappa, V domains shown, Named IgG4 kappa; also called C8-co-16 IgG4) VH: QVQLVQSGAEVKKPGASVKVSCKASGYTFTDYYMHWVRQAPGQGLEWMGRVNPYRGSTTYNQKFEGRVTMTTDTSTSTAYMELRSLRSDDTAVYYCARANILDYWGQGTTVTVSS VL: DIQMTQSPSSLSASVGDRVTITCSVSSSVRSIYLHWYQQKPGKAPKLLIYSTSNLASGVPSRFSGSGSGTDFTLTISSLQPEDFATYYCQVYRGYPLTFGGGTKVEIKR
RESULT: -2.89

QUERY: Identify measured % inhibition of HGF stimulated phospho-Met (ELISA, HCT116 cells), Ab 0.016 µg/mL associated with D11-C27G3 (antibody, human IgG2, kappa, V domains shown, Human engineered IgG2 kappa c-Met antibody; also called D11-27G3; D11-C27G3 IgG2) VH: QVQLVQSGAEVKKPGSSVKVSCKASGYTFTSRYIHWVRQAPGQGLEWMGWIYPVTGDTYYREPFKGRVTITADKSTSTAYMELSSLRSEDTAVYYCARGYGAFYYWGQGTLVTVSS VL: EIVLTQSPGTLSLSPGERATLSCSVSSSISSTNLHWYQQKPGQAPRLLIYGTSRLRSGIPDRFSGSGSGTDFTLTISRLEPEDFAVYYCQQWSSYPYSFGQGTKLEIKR
RESULT: 5.73

Values compiled from patent US20100129369A1.
